system: OVCAR-3 ovarian; assay: NCI-60 one-dose screen, 48 h; details: 10 µM unless noted
This is part of a sample that, as a whole, favours compounds with a hit. Of some 83,000 tested, about 20% had one in any assay. The source made the active and inactive calls. Rule for the calls: active = growth percent below 10; inactive = the rest.
API: response.call in 1.0 for active, 0.0 for inactive

Task: Which result was noted for this molecule in the test: `Cc1cn(C)cn1`
Result: 0.0

Task: Which result was noted for this molecule in the test: `COc1cc(/C=C/c2cc(/C=C/c3ccc(O)c(OC)c3)n(C(=O)Nc3ccc(Cl)cc3)n2)ccc1O`
Result: 1.0

Task: Which result was noted for this molecule in the test: `CCOc1ncc([N+](=O)[O-])c(OCC)n1`
Result: 0.0

Task: Which result was noted for this molecule in the test: COC1/C=C/OC2(C)Oc3c(C)c(O)c4c(O)c(c(/C=N/N(c5ccccc5)c5ccccc5)c(O)c4c3C2=O)NC(=O)C(C)=C/C=C/C(C)C(O)C(C)C(O)C(C)C(OC(C)=O)C1C (stereo not drawn)
Result: 0.0

Task: Which result was noted for this molecule in the test: `Nc1[nH]nc2nc(-c3ccccc3)n3c4ccccc4nc3c12`
Result: 0.0

Task: Which result was noted for this molecule in the test: COc1cc2c(c(OC)c1OC)CCC(c1cccc(C(=O)Nc3ccc(Br)cc3)c1)O2 (stereo not drawn)
Result: 0.0

Task: Which result was noted for this molecule in the test: `Cc1ccc(C(=O)c2ccc(CC(=O)N/N=C/c3cccc(O)c3O)n2C)cc1`
Result: 0.0

Task: Which result was noted for this molecule in the test: Cc1cc(C)c2c(c1)N(C)c1ncnc(-n3c(C)nc4cc(C)ccc43)c1CC2C (stereo not drawn)
Result: 0.0

Task: Which result was noted for this molecule in the test: `COc1cc(/C=C/C(=O)c2cc(OC)c(OC)c(OC)c2)ccc1Oc1nc2c(c(=O)n(C)c(=O)n2C)n1C`
Result: 1.0

Task: Which result was noted for this molecule in the test: Cc1ccc2c(c1)nc(C)n2-c1ncnc2c1CC(C)c1cc(O)ccc1N2C (stereo not drawn)
Result: 0.0

Task: Which result was noted for this molecule in the test: `O=C(O)CCCCCCCCCCN1C(=O)/C(=C2/C(=O)N(CC(=O)O)c3ccc(Br)cc32)SC1=S`
Result: 0.0

Task: Which result was noted for this molecule in the test: `CCOC(=O)CNC1=C(Cl)C(=O)N(Cc2ccc(Cl)cc2)C1=O`
Result: 0.0

Task: Which result was noted for this molecule in the test: `CC(C)(C)CC(C)(C)Nc1c(-c2c(O)c3ccccc3oc2=O)nc2sc3ccccc3n12`
Result: 0.0

Task: Which result was noted for this molecule in the test: `CNC(=O)c1cc(Oc2ccc3c(c2)sc2nc(-c4ccc(NC(=O)[C@@H](NC(=O)OC)C(C)C)cc4)cn23)ccn1`
Result: 0.0

Task: Which result was noted for this molecule in the test: CC(=O)N1N=C(c2ccc(Nc3nc(Nc4ccc(F)cc4)nc(Nc4ccc(F)cc4)n3)cc2)CC1c1ccc(N(C)C)cc1 (stereo not drawn)
Result: 0.0

Task: Which result was noted for this molecule in the test: COc1ccc(C2CC(c3ccccc3)=NN2C(=O)c2cc(OC)c(OC)c(OC)c2)cc1O (stereo not drawn)
Result: 0.0

Task: Which result was noted for this molecule in the test: `COC(=O)[C@]1(C)CCC[C@]2(C)[C@H]3C[C@@H]4[C@H]5[C@@H]6CC/C(=N\OCC/C(N)=N/O)[C@H]5[C@@]3(CC[C@H]21)CC4(C(C)C)O6`
Result: 0.0

Task: Which result was noted for this molecule in the test: `Nc1c(C(=O)Nc2cccc3ncccc23)sc2nc3c(cc12)CN(Cc1ccccc1)CC3`
Result: 0.0

Task: Which result was noted for this molecule in the test: `CCOC(=O)NC(=S)n1oc(=O)c2ccccc21`
Result: 0.0

Task: Which result was noted for this molecule in the test: `Cn1cc(-c2csc(-c3cn(C)c4ccccc34)n2)c2cnccc21`
Result: 0.0

Task: Which result was noted for this molecule in the test: `CCOC(=O)/C(=C(/C)NCC(C)C)c1cc(O)c(O)c2c(C)cc(=O)[nH]c12`
Result: 1.0

Task: Which result was noted for this molecule in the test: `CN1c2ccccc2S(=O)(=O)n2c(SCC(=O)Nc3nc4ccc(F)cc4s3)nnc21`
Result: 0.0

Task: Which result was noted for this molecule in the test: `Cc1cccc(NC(=O)Cn2cc(CN3CCN(c4ccnc5cc(Cl)ccc45)CC3)nn2)c1`
Result: 0.0

Task: Which result was noted for this molecule in the test: `O=S(=O)(NCCNc1nccc(-c2c(-c3ccc(F)c(O)c3)nc3sccn23)n1)c1ccc(Cl)cc1`
Result: 0.0

Task: Which result was noted for this molecule in the test: `CNC(=O)c1cc(Oc2ccc3c(c2)sc2nc(-c4ccc(Cl)c(C(F)(F)F)c4)cn23)ccn1`
Result: 0.0

Task: Which result was noted for this molecule in the test: O=C(c1ccc(Br)cc1)C(Br)C(c1ccc(Cl)cc1)C(c1ccccc1)[N+](=O)[O-] (stereo not drawn)
Result: 0.0

Task: Which result was noted for this molecule in the test: `CCCCCCCCCCCCCCCCCCOc1ccccc1CC(=O)NCC[N+](C)(C)C`
Result: 0.0

Task: Which result was noted for this molecule in the test: `CSc1ccc(N2C(=N)C(=S)N(c3ccc(C)cc3)C2=O)cc1`
Result: 0.0

Task: Which result was noted for this molecule in the test: COc1cc2c(c(OC)c1OC)C(=O)CC(c1cccc(C(=O)Nc3ccc(C#N)cc3)c1)O2 (stereo not drawn)
Result: 0.0

Task: Which result was noted for this molecule in the test: `COc1nc(/C=C\Nc2ccc3c(c2)OCCOCCOCCOCCO3)nc(OC)n1`
Result: 0.0

Task: Which result was noted for this molecule in the test: `C=C1C(=O)O[C@H]2[C@H]1CC/C(COC(=O)NCc1ccc(Cn3c(=O)sn(-c4ccccc4)c3=O)cc1)=C\CC[C@@]1(C)O[C@@H]21`
Result: 1.0

Task: Which result was noted for this molecule in the test: C=C1C(=O)O[C@@H]2C3C(=C(C)CC[C@@H]12)CC1O[C@]13C (stereo partly drawn)
Result: 0.0

Task: Which result was noted for this molecule in the test: `CCOC(=O)c1c(C)nc2ccccc2c1/C=C/c1ccc(F)cc1`
Result: 0.0

Task: Which result was noted for this molecule in the test: `COc1ccc(/C=C2\CN(C(=O)C(Cl)Cl)C/C(=C\c3ccc(OC)c(OC)c3)C2=O)cc1OC`
Result: 1.0

Task: Which result was noted for this molecule in the test: O=C1CCCC1[n+]1ccccc1 (stereo not drawn)
Result: 0.0

Task: Which result was noted for this molecule in the test: COc1ccc(C2[C@@H](c3ccccc3)C(=O)N2c2cc(OC)c(OC)c(OC)c2)cc1F (stereo partly drawn)
Result: 1.0

Task: Which result was noted for this molecule in the test: `COc1ccc(Nc2ncc(I)c(NCCCNC(=O)C3CCC3)n2)cc1`
Result: 1.0

Task: Which result was noted for this molecule in the test: `COCCn1cc(-c2nc(-c3cc4cccnc4n3C)cs2)c2ccccc21`
Result: 0.0
